Kindly supply the reported pIC50 values for the records listed here.
system.name: H1047R PIK3CA enzyme (Homo sapiens, UniProt P42336, H1047R)
Sequence (P42336 whole entry H1047R): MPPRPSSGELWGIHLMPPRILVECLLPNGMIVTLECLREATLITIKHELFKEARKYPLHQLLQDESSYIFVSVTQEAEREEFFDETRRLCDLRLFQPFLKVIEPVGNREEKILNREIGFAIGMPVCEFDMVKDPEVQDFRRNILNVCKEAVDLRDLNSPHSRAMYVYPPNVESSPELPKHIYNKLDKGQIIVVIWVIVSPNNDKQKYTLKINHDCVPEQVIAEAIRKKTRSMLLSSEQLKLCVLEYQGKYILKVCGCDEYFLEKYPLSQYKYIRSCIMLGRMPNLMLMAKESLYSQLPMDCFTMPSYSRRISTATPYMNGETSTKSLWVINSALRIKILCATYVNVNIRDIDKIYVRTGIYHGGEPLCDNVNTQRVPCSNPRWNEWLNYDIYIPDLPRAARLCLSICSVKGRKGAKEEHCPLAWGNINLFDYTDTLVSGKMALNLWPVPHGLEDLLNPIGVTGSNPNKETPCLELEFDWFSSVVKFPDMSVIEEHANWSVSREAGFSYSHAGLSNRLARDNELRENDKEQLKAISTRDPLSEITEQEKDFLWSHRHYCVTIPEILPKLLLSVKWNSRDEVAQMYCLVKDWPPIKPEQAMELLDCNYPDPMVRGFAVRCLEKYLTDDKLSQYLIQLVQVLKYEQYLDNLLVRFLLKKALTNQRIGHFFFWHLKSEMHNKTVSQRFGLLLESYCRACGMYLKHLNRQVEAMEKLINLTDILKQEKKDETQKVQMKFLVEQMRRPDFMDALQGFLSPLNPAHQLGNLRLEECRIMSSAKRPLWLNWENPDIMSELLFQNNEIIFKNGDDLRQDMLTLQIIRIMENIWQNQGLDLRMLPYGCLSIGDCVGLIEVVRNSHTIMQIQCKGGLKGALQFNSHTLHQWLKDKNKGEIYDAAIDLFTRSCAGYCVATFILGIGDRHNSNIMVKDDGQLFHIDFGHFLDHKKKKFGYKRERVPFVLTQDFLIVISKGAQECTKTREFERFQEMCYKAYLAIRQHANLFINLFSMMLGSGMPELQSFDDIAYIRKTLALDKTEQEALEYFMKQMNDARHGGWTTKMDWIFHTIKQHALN
Sequence (P27986 whole entry partner): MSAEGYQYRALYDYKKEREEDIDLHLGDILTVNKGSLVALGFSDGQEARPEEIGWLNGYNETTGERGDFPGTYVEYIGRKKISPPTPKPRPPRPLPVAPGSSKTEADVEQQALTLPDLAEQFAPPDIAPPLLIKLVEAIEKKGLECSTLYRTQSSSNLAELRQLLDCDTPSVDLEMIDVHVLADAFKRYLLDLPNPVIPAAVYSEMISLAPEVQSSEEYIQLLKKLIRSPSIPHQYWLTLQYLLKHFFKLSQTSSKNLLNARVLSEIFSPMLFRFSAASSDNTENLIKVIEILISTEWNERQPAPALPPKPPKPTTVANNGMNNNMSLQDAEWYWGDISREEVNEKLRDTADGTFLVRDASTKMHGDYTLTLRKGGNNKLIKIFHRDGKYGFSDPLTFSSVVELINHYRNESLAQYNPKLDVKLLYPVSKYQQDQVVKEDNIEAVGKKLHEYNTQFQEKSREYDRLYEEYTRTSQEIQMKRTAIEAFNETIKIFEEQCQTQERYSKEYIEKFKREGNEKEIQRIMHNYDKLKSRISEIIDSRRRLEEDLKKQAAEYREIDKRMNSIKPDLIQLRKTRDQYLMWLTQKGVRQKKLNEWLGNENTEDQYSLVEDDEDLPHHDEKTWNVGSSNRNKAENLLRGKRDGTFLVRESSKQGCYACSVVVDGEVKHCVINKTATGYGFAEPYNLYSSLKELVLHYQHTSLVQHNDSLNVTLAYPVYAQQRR
method.summary: ADP-Glo Biochemical PIK3CA Kinase Assay
pIC50: −log10 of the molar value.

State its pIC50 on H1047R PIK3CA enzyme (Homo sapiens, UniProt P42336, H1047R): CNc1cc(Nc2csc3ccccc23)cc2c1C(=O)NC2c1ccccc1C (stereo not shown)
5.00 to 6.00

State its pIC50 on H1047R PIK3CA enzyme (Homo sapiens, UniProt P42336, H1047R): N#Cc1cnn(-c2cc(NC(=O)N3CC(O)c4cc(F)ccc43)c3c(c2)C(=O)NC3c2cc(F)ccc2Cl)c1 (stereo not shown)
6.30 to 7.00

State its pIC50 on H1047R PIK3CA enzyme (Homo sapiens, UniProt P42336, H1047R): O=C(Nc1cc(-c2cn3ncnc3cn2)cc2c1C(c1cc(F)ccc1Cl)NC2=O)c1cc(F)cc(C(F)(F)F)c1 (stereo not shown)
≥ 7.00

State its pIC50 on H1047R PIK3CA enzyme (Homo sapiens, UniProt P42336, H1047R): Cc1c(F)cccc1[C@H]1NC(=O)c2cc(Br)cc(NC(=O)c3cc(F)cc(C(F)(F)F)c3)c21
5.00 to 6.00

###

method.summary: cells
stated.conditions: Homo sapiens, MCF-10A, read-out: MCF10A IC50
Kindly supply the reported IC50 values for the records listed here.

Please give the measured IC50 for this compound: O=C1N[C@H](c2ccccc2Cl)c2c(NC(=O)c3csc4ccccc34)ccnc21 [Compound I-33]
1 to 5 µM

Please give the measured IC50 for this compound: O=C(Nc1cc(-c2cn3ncnc3cn2)cc2c1[C@H](c1cc(F)ccc1Cl)NC2=O)c1cc(F)cc(C(F)(F)F)c1 [Compound I-1441]
< 1 µM

Please give the measured IC50 for this compound: Cn1nccc1CNc1cc(NC(=O)c2cc(F)cc(C(F)(F)F)c2)c2c(c1)C(=O)NC2c1cc(F)ccc1Cl (stereo not shown) [Compound I-1082]
< 1 µM

Please give the measured IC50 for this compound: Cn1cccc(-c2cc(NC(=O)c3cc(F)cc(C(F)(F)F)c3)c3c(c2)C(=O)NC3c2cc(F)ccc2Cl)c1=O (stereo not shown) [Compound I-901]
1 to 5 µM

###

system.name: H1047R PIK3CA enzyme (Homo sapiens, UniProt P42336, H1047R)
method.summary: ADP-Glo Biochemical PIK3CA Kinase Assay
pIC50: −log10 of the molar value.
Kindly supply the reported pIC50 values for the records listed here.

Please give the measured pIC50 for this molecule: Cc1ccccc1C1NC(=O)c2cc(Br)cc(NC(=O)c3cncc(C(F)(F)F)c3)c21 (centres unmarked) [Compound I-528]
5.00 to 6.00

Please give the measured pIC50 for this molecule: NC1CN(c2cc(NC(=O)c3cc(F)cc(C(F)(F)F)c3)c3c(n2)C(=O)NC3c2cc(F)ccc2Cl)C1 (centres unmarked) [Compound I-417]
6.30 to 7.00

Please give the measured pIC50 for this molecule: O=C1NC(c2cc(F)ccc2Cl)c2c(NC(=O)N3CC(CO)c4ccccc43)cccc21 (mixture of isomers) [Compound I-2314]
5.00 to 6.00

Please give the measured pIC50 for this molecule: Cn1cc(-c2cc(NC(=O)c3cc(F)cc(Cl)c3)c3c(n2)C(=O)NC3c2cc(F)ccc2Cl)cn1 (centres unmarked) [Compound I-379]
6.30 to 7.00

Please give the measured pIC50 for this molecule: O=C(Nc1cccc2c(=O)[nH]n(Cc3ccccc3)c12)c1csc2ccccc12 [Compound I-118]
4.00 to 5.00

Please give the measured pIC50 for this molecule: Cc1ccccc1C1NC(=O)c2c(C(=O)O)ccc(NC(=O)c3nsc4ccccc34)c21 (centres unmarked) [Compound I-278]
6.00 to 6.30

Please give the measured pIC50 for this molecule: O=C1Cc2cccc(C3NC(=O)c4cccc(NC(=O)c5cc(F)cc(C(F)(F)F)c5)c43)c2N1 (centres unmarked) [Compound I-810]
4.00 to 5.00

Please give the measured pIC50 for this molecule: COc1ccc([C@H](C)N2C(=O)c3cc(Br)cc(N)c3[C@@H]2c2cc(F)ccc2Cl)cc1 (racemic) [Compound I-863]
5.00 to 6.00

Please give the measured pIC50 for this molecule: Cc1ccccc1C1NC(=O)c2cccc(NC(=O)c3nsc4ccc(F)cc34)c21 (centres unmarked) [Compound I-105]
6.30 to 7.00

Please give the measured pIC50 for this molecule: O=C1N[C@@H](c2cc(F)ccc2Cl)c2c(NC(=O)N3C[C@](O)(C(F)(F)F)c4ccccc43)cccc21 (single isomer, unassigned) [Compound I-2384]
5.00 to 6.00

Please give the measured pIC50 for this molecule: O=C(Nc1cc(OCC(F)F)cc2c1[C@@H](c1cc(F)ccc1Cl)NC2=O)c1cc(F)cc(C(F)(F)F)c1 [Compound I-2061]
5.00 to 6.00

Please give the measured pIC50 for this molecule: O=C(Nc1cc(-c2cnn(-c3ncccn3)c2)cc2c1C(c1cc(F)ccc1Cl)NC2=O)c1cc(F)cc(C(F)(F)F)c1 (single isomer, unassigned) [Compound I-1554]
5.00 to 6.00

Please give the measured pIC50 for this molecule: Cc1ccccc1[C@@H]1NC(=O)c2cccc(NC(=O)c3csc4c(F)cccc34)c21 [Compound I-37]
4.00 to 5.00

Please give the measured pIC50 for this molecule: Cc1ccccc1C1NC(=O)c2cc([C@@H](C)N)cc(NC(=O)c3csc4ccccc34)c21 (mixture of isomers) [Compound I-90]
≥ 7.00

###

system.name: H1047R PIK3CA enzyme (Homo sapiens, UniProt P42336, H1047R)
method.summary: ADP-Glo Biochemical PIK3CA Kinase Assay
attribute.measured: IC50

State its IC50 on H1047R PIK3CA enzyme (Homo sapiens, UniProt P42336, H1047R): O=C(Nc1cc(-c2ccc3[nH]ncc3c2)cc2c1C(c1cc(F)ccc1Cl)NC2=O)c1cc(F)cc(C(F)(F)F)c1 (centres unmarked) [Compound I-1033]
≤ 100 nM

State its IC50 on H1047R PIK3CA enzyme (Homo sapiens, UniProt P42336, H1047R): O=C1NC(c2cc(F)ccc2Cl)c2c(NC(=O)N3CC(C(F)(F)F)Nc4ccccc43)cccc21 (centres unmarked) [Compound I-2339]
10000 to 100000 nM

State its IC50 on H1047R PIK3CA enzyme (Homo sapiens, UniProt P42336, H1047R): O=C(Nc1cc(-c2cnc(C(F)(F)F)s2)nc2c1C(c1cc(F)ccc1Cl)NC2=O)c1cc(F)cc(Cl)c1 (centres unmarked) [Compound I-496]
≤ 100 nM

State its IC50 on H1047R PIK3CA enzyme (Homo sapiens, UniProt P42336, H1047R): N#Cc1ccc(-c2cc(NC(=O)c3cc(F)cc(C(F)(F)F)c3)c3c(c2)C(=O)NC3c2cc(F)ccc2Cl)cn1 (centres unmarked) [Compound I-928]
≤ 100 nM

State its IC50 on H1047R PIK3CA enzyme (Homo sapiens, UniProt P42336, H1047R): O=C(Nc1cc(-c2ccc3nc(C(F)F)nn3c2)cc2c1[C@H](c1cc(F)ccc1Cl)NC2=O)c1cc(F)cc(C(F)(F)F)c1 [Compound I-1987]
≤ 100 nM

State its IC50 on H1047R PIK3CA enzyme (Homo sapiens, UniProt P42336, H1047R): O=C1NC(c2cc(F)ccc2Cl)c2c(OCc3cc(F)cc(C(F)(F)F)c3)cccc21 (centres unmarked) [Compound I-2295]
10000 to 100000 nM

State its IC50 on H1047R PIK3CA enzyme (Homo sapiens, UniProt P42336, H1047R): NCCc1cc(NC(=O)N2C[C@H](O)c3cc(F)ccc32)c2c(c1)C(=O)N[C@@H]2c1cc(F)ccc1Cl (single isomer, unassigned) [Compound I-2443]
≤ 100 nM

State its IC50 on H1047R PIK3CA enzyme (Homo sapiens, UniProt P42336, H1047R): N#Cc1cnc2cc(F)c(-c3cc(NC(=O)c4cc(F)cc(C(F)(F)F)c4)c4c(c3)C(=O)N[C@@H]4c3cc(F)ccc3Cl)cn12 [Compound I-1883]
1000 to 10000 nM

State its IC50 on H1047R PIK3CA enzyme (Homo sapiens, UniProt P42336, H1047R): O=C(Nc1cc(Br)cc2c1C(c1cc(F)ccc1Cl)NC2=O)c1cc(F)cc(Cl)c1F (centres unmarked) [Compound I-836]
500 to 1000 nM

State its IC50 on H1047R PIK3CA enzyme (Homo sapiens, UniProt P42336, H1047R): O=C1NC(c2cc(F)ccc2Cl)c2c(NC(=O)c3[nH]nnc3CC(F)(F)F)cccc21 (centres unmarked) [Compound I-2194]
10000 to 100000 nM

State its IC50 on H1047R PIK3CA enzyme (Homo sapiens, UniProt P42336, H1047R): CC1(C2NC(=O)c3cccc(NC(=O)c4cc(F)cc(C(F)(F)F)c4)c32)CCCCC1 (centres unmarked) [Compound I-1917]
10000 to 100000 nM

State its IC50 on H1047R PIK3CA enzyme (Homo sapiens, UniProt P42336, H1047R): O=C(Nc1cc(C2CC23CC3)cc2c1C(c1cc(F)ccc1Cl)NC2=O)c1cc(F)cc(C(F)(F)F)c1 (centres unmarked) [Compound I-1266]
≤ 100 nM

State its IC50 on H1047R PIK3CA enzyme (Homo sapiens, UniProt P42336, H1047R): Cc1cccc2c1CCN2C(=O)Nc1cccc2c1C(c1cc(F)ccc1Cl)NC2=O (centres unmarked) [Compound I-2438]
1000 to 10000 nM

State its IC50 on H1047R PIK3CA enzyme (Homo sapiens, UniProt P42336, H1047R): O=C(Nc1cc(Br)cc2c1C(c1cc(F)ccc1Cl)NC2=O)c1ccc(F)c(OC(F)(F)F)c1 (centres unmarked) [Compound I-516]
100 to 500 nM
